# credit: patent US20240261333A1

test_system: T1, B3GNT2 (Homo sapiens, UniProt Q9NY97)
T1 construct: The respective ORFs of candidate genes [CD274 (NM_014143), MCL1 (NM_021960), JUNB (NM_002229), and B3GNT2 (NM_006577)] were synthesized; expressed in transfected cells; host or cells: A375 melanoma cells (lentiviral ORF overexpression)
T1 sequence (Q9NY97 1-397): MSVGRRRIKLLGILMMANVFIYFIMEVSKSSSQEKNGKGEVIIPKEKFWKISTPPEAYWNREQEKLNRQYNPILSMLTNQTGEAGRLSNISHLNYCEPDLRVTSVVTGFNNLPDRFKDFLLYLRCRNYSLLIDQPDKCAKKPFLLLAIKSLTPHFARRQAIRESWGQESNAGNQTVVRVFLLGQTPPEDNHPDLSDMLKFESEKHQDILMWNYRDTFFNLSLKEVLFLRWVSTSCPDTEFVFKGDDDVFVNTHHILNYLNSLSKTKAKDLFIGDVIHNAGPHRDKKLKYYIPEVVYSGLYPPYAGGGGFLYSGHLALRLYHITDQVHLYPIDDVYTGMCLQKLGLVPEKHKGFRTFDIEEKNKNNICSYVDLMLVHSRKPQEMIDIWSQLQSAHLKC
protocol_text: Co-IP of FLAG-tagged B3GNT2 followed by mass spectrometry
Format: cell-based
Parameters: unit not given here
protocol_conditions: Co-IP with IgG control antibody, C-terminally FLAG-tagged B3GNT2; mass spectrometry count, unit not given
Parameter C-term IgG: see the listing below.
The response must contain the number and no unit.

Q: Give the reported value of C-term IgG for this record: ERLIN1 (protein) MNMTQARVLVAAVVGLVAVLLYASIHKIEEGHLAVYYRGGALLTSPSGPGYHIMLPFITTFRSVQTTLQTDEVKNVPCGTSGGVMIYIDRIEVVNMLAPYAVFDIVRNYTADYDKTLIFNKIHHELNQFCSAHTLQEVYIELFDQIDENLKQALQKDLNLMAPGLTIQAVRVTKPKIPEAIRRNFELMEAEKTKLLIAAQKQKVVEKEAETERKKAVIEAEKIAQVAKIRFQQKVMEKETEKRISEIEDAAFLAREKAKADAEYYAAHKYATSNKHKLTPEYLELKKYQAIASNSKIYFGSNIPNMFVDSSCALKYSDIRTGRESSLPSKEALEPSGENVIQNKESTG
Ans: 0

# next molecule below
Q: Return the recorded C-term IgG value; entry: HNRNPA1 (protein) SKSESPKEPEQLRKLFIGGLSFETTDESLRSHFEQWGTLTDCVVMRDPNTKRSRGFGFVTYATVEEVDAAMNARPHKVDGRVVEPKRAVSREDSQRPGAHLTVKKIFVGGIKEDTEEHHLRDYFEQYGKIEVIEIMTDRGSGKKRGFAFVTFDDHDSVDKIVIQKYHTVNGHNCEVRKALSKQEMASASSSQRGRSGSGNFGGGRGGGFGGNDNFGRGGNFSGRGGFGGSRGGGGYGGSGDGYNGFGNDGGYGGGGPGYSGGSRGYGSGGQGYGNQGSGYGGSGSYDSYNNGGGGGFGGGSGSNFGGGGSYNDFGNYNNQSSNFGPMKGGNFGGRSSGPYGGGGQYFAKPRNQGGYGGSSSSSSYGSGRRF
Ans: 4
